- targetEntity: PTK6 (human)
- assay: KINOMEscan competition binding
- experimentalContext: compound 10.0 µM
Checkbox rule: kinase still bound, per cent of control lower than 90% = YES; kinase still bound, per cent of control not lower than 90% = NO.

Check if kinase still bound, per cent of control falls below 90% for O=C(NC1CC1)c1cccc(-c2ccc3c(NC(=O)C4CC4)n[nH]c3c2)c1 .
NO

Same lookup for CCCS(=O)(=O)Nc1ccc(F)c(C(=O)c2c[nH]c3ncc(-c4ccc(Cl)cc4)cc23)c1F , please.
YES

Same lookup for Cc1ccc(NC(=O)c2cccc(C(C)(C)C#N)c2)cc1Nc1ccc2ncn(C)c(=O)c2c1 , please.
NO

Same lookup for OCCCNc1cc(-c2ccnc(Nc3cccc(Cl)c3)n2)ccn1 , please.
NO

Same lookup for COc1cc(C(=O)NC2CCN(C)CC2)ccc1Nc1ncc2c(n1)N(C1CCCC1)C(C)CC(=O)N2C (centres undefined) , please.
NO

Same lookup for O=C(O)c1ccc(Nc2ncc3c(n2)-c2ccc(Cl)cc2C(c2c(F)cccc2F)=NC3)cc1 , please.
YES

Same lookup for Nc1ccc(-c2ccc3ncc4ccc(=O)n(-c5cccc(C(F)(F)F)c5)c4c3c2)cn1 , please.
NO

Same lookup for C=CC(=O)Nc1cccc(Nc2nc(N[C@H]3CC[C@H](N(C)C)CC3)nc3c2ncn3C(C)C)c1 , please.
NO

Same lookup for Cc1ccc(C(=O)Nc2cccc(C(F)(F)F)c2)cc1Nc1cncc(C(N)=O)c1 , please.
NO

Same lookup for C[C@@H](Oc1cc(-n2cnc3ccc(CN4CCN(C)CC4)cc32)sc1C(N)=O)c1ccccc1C(F)(F)F , please.
NO

Same lookup for N#Cc1c(NC(=O)c2cccc3ccccc23)sc2c1CCCC2 , please.
YES

Same lookup for O=C1Nc2ccc(I)cc2/C1=C/c1cc(Br)c(O)c(Br)c1 , please.
YES

Same lookup for C=CC(=O)Nc1cc(NC(=O)c2ccc(C)c(NC(=O)c3ccno3)c2)cc(C(F)(F)F)c1 , please.
NO

Same lookup for O=C(NOC[C@H](O)CO)c1ccc(F)c(F)c1Nc1ccc(I)cc1F , please.
YES

Same lookup for CN(C)C/C=C/C(=O)Nc1cccc(Nc2ncc3c(n2)N(C)c2ccccc2C(=O)N3C)c1 , please.
YES

Same lookup for CCN1CCN(Cc2ccc(Nc3ncc4c(n3)N(C)c3ccccc3C(=O)N4C)cc2C(F)(F)F)CC1 , please.
YES

Same lookup for C=CC(=O)Nc1cccc(Oc2nc(Nc3ccc(N4CCN(C)CC4)cc3OC)ncc2Cl)c1 , please.
NO

Same lookup for Cc1cc([C@@H](C)Nc2ccccc2C(=O)O)c2nc(N3CCOCC3)cc(=O)n2c1 , please.
YES

Same lookup for CCOc1cc2ncc(C#N)c(Nc3ccc(OCc4ccccn4)c(Cl)c3)c2cc1NC(=O)/C=C/CN(C)C , please.
NO

* * *

- targetEntity: SRPK1 (human) (UniProt Q96SB4)
- Sequence (Q96SB4 whole entry, looked up): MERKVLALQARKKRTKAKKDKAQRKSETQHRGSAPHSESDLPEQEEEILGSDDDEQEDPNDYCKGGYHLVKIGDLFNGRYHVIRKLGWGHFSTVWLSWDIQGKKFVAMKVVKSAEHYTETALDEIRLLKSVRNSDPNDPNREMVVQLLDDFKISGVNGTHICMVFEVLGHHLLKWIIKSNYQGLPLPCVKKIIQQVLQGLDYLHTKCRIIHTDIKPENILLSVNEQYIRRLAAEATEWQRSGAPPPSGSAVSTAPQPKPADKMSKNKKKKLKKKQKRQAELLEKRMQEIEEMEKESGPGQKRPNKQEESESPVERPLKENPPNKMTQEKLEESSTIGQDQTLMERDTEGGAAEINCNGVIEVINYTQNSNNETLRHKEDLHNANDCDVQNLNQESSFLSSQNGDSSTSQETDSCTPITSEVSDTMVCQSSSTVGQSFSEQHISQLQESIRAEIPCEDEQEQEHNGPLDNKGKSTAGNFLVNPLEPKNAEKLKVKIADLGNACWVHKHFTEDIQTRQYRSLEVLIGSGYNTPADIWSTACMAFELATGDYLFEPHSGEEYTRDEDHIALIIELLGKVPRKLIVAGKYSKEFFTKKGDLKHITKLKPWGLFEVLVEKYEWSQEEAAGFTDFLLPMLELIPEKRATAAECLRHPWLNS
- assay: KINOMEscan competition binding
- experimentalContext: compound 10.0 µM
measuredEndpoint: kinase still bound, per cent of control (%)
Respond with the bare value in %.

Field request: kinase still bound, per cent of control | item: OCCCNc1cc(-c2ccnc(Nc3cccc(Cl)c3)n2)ccn1
100

Same lookup for C=CC(=O)Nc1cccc(Nc2nc(N[C@H]3CC[C@H](N(C)C)CC3)nc3c2ncn3C(C)C)c1 , please.
52

Same lookup for Nc1ccc(-c2ccc3ncc4ccc(=O)n(-c5cccc(C(F)(F)F)c5)c4c3c2)cn1 , please.
100

Same lookup for Cc1ccc(NC(=O)c2cccc(C(C)(C)C#N)c2)cc1Nc1ccc2ncn(C)c(=O)c2c1 , please.
100

Same lookup for Cn1c(=O)n(-c2ccc(C(C)(C)C#N)cc2)c2c3cc(-c4cnc5ccccc5c4)ccc3ncc21 , please.
100

Same lookup for O=C1Nc2ccc(I)cc2/C1=C/c1cc(Br)c(O)c(Br)c1 , please.
40

Same lookup for O=C(NC1CC1)c1cccc(-c2ccc3c(NC(=O)C4CC4)n[nH]c3c2)c1 , please.
43

Same lookup for CCOc1cc2ncc(C#N)c(Nc3ccc(OCc4ccccn4)c(Cl)c3)c2cc1NC(=O)/C=C/CN(C)C , please.
100

Same lookup for C=CC(=O)Nc1cccc(Oc2nc(Nc3ccc(N4CCN(C)CC4)cc3OC)ncc2Cl)c1 , please.
21

* * *

- targetEntity: CAMK1D (human)
- assay: KINOMEscan competition binding
- experimentalContext: compound 10.0 µM
measuredEndpoint: kinase still bound, per cent of control (%)
Respond with the bare value in %.

Field request: kinase still bound, per cent of control | item: Cc1ccc2nc(NCCN)c3ncc(C)n3c2c1
69

Same lookup for O=C1Nc2ccc(I)cc2/C1=C/c1cc(Br)c(O)c(Br)c1 , please.
76

Same lookup for O=C(NOC[C@H](O)CO)c1ccc(F)c(F)c1Nc1ccc(I)cc1F , please.
89

Same lookup for Cn1c(=O)n(-c2ccc(C(C)(C)C#N)cc2)c2c3cc(-c4cnc5ccccc5c4)ccc3ncc21 , please.
100

Same lookup for O=C(O)c1ccc(Nc2ncc3c(n2)-c2ccc(Cl)cc2C(c2c(F)cccc2F)=NC3)cc1 , please.
98

Same lookup for C[C@@H](Oc1cc(-n2cnc3ccc(CN4CCN(C)CC4)cc32)sc1C(N)=O)c1ccccc1C(F)(F)F , please.
82

Same lookup for Nc1ccc(-c2ccc3ncc4ccc(=O)n(-c5cccc(C(F)(F)F)c5)c4c3c2)cn1 , please.
100

Same lookup for CN(C)C/C=C/C(=O)Nc1cccc(Nc2ncc3c(n2)N(C)c2ccccc2C(=O)N3C)c1 , please.
59

Same lookup for CCC(=O)N1CCN(c2ccc(-n3c(=O)ccc4cnc5ccc(-c6cnc7ccccc7c6)cc5c43)cc2C(F)(F)F)CC1 , please.
88

Same lookup for O=C(NC1CC1)c1cccc(-c2ccc3c(NC(=O)C4CC4)n[nH]c3c2)c1 , please.
100

Same lookup for Cc1cc([C@@H](C)Nc2ccccc2C(=O)O)c2nc(N3CCOCC3)cc(=O)n2c1 , please.
100

Same lookup for CCN1CCN(Cc2ccc(Nc3ncc4c(n3)N(C)c3ccccc3C(=O)N4C)cc2C(F)(F)F)CC1 , please.
76

Same lookup for Cc1ccc(NC(=O)c2cccc(C(C)(C)C#N)c2)cc1Nc1ccc2ncn(C)c(=O)c2c1 , please.
100

Same lookup for COc1cc(N2CCN(C)CC2)ccc1Nc1nc(N)c(C(=O)c2c(Cl)cccc2Cl)s1 , please.
24

Same lookup for C=CC(=O)Nc1cccc(Oc2nc(Nc3ccc(N4CCN(C)CC4)cc3OC)ncc2Cl)c1 , please.
27

Same lookup for COc1cc(C(=O)NC2CCN(C)CC2)ccc1Nc1ncc2c(n1)N(C1CCCC1)CCC(=O)N2C(C)C , please.
100

Same lookup for C=CC(=O)Nc1cc(NC(=O)c2ccc(C)c(NC(=O)c3ccno3)c2)cc(C(F)(F)F)c1 , please.
83

Same lookup for C=CC(=O)Nc1cccc(Nc2nc(N[C@H]3CC[C@H](N(C)C)CC3)nc3c2ncn3C(C)C)c1 , please.
67

Same lookup for OCCCNc1cc(-c2ccnc(Nc3cccc(Cl)c3)n2)ccn1 , please.
100

* * *

- targetEntity: UniProt:Q13873
- Sequence (Q13873 whole entry, looked up): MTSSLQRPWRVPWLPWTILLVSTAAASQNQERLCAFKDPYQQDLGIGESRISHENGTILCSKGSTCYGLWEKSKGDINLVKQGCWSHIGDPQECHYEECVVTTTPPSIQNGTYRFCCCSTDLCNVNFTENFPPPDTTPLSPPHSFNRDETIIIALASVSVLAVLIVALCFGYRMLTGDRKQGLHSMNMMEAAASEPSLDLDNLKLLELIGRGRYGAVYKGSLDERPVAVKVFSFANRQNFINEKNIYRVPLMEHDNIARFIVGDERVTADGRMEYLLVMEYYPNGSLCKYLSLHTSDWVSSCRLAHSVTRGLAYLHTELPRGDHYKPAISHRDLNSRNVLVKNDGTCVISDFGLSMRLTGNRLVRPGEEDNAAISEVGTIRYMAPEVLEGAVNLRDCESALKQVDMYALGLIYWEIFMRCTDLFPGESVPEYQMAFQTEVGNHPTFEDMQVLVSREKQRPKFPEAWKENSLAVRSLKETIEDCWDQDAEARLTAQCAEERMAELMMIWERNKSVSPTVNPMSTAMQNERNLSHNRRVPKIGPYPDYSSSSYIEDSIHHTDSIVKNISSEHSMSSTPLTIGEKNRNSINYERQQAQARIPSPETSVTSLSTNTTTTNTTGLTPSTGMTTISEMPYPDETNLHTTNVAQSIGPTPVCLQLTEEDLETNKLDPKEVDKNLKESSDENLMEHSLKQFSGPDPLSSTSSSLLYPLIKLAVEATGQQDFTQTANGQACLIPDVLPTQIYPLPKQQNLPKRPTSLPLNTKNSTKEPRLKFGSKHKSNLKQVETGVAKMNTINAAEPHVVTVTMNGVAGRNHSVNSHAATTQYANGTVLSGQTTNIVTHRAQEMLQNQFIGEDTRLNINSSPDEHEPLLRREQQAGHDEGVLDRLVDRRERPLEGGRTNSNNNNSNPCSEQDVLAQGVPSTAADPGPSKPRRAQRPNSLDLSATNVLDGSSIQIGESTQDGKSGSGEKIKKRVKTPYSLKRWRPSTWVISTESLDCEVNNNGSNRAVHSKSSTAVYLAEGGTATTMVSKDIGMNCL
- assay: KINOMEscan competition binding
- experimentalContext: compound 10.0 µM
measuredEndpoint: kinase still bound, per cent of control

Field request: kinase still bound, per cent of control | item: O=C(O)c1ccc(Nc2ncc3c(n2)-c2ccc(Cl)cc2C(c2c(F)cccc2F)=NC3)cc1
26%

Same lookup for OCCCNc1cc(-c2ccnc(Nc3cccc(Cl)c3)n2)ccn1 , please.
100%

Same lookup for Nc1ccc(-c2ccc3ncc4ccc(=O)n(-c5cccc(C(F)(F)F)c5)c4c3c2)cn1 , please.
100%

Same lookup for C=CC(=O)Nc1cccc(Oc2nc(Nc3ccc(N4CCN(C)CC4)cc3OC)ncc2Cl)c1 , please.
8.6%

Same lookup for CN(C)C/C=C/C(=O)Nc1cccc(Nc2ncc3c(n2)N(C)c2ccccc2C(=O)N3C)c1 , please.
71%

Same lookup for C=CC(=O)Nc1cc(NC(=O)c2ccc(C)c(NC(=O)c3ccno3)c2)cc(C(F)(F)F)c1 , please.
100%

Same lookup for COc1cc(N2CCN(C)CC2)ccc1Nc1nc(N)c(C(=O)c2c(Cl)cccc2Cl)s1 , please.
82%

Same lookup for Cc1ccc2nc(NCCN)c3ncc(C)n3c2c1 , please.
96%

Same lookup for COc1cc(C(=O)NC2CCN(C)CC2)ccc1Nc1ncc2c(n1)N(C1CCCC1)CCC(=O)N2C(C)C , please.
100%

Same lookup for CC[C@@H]1C(=O)N(C)c2cnc(Nc3ccc(C(=O)NC4CCN(C)CC4)cc3OC)nc2N1C1CCCC1 , please.
100%

Same lookup for CCOc1cc2ncc(C#N)c(Nc3ccc(OCc4ccccn4)c(Cl)c3)c2cc1NC(=O)/C=C/CN(C)C , please.
78%

Same lookup for CCC(=O)N1CCN(c2ccc(-n3c(=O)ccc4cnc5ccc(-c6cnc7ccccc7c6)cc5c43)cc2C(F)(F)F)CC1 , please.
59%

Same lookup for O=C(NOC[C@H](O)CO)c1ccc(F)c(F)c1Nc1ccc(I)cc1F , please.
92%

Same lookup for Cc1ccc(NC(=O)c2cccc(C(C)(C)C#N)c2)cc1Nc1ccc2ncn(C)c(=O)c2c1 , please.
58%

Same lookup for O=C(NC1CC1)c1cccc(-c2ccc3c(NC(=O)C4CC4)n[nH]c3c2)c1 , please.
91%

Same lookup for C=CC(=O)Nc1cccc(Nc2nc(N[C@H]3CC[C@H](N(C)C)CC3)nc3c2ncn3C(C)C)c1 , please.
79%

Same lookup for O=C1Nc2ccc(I)cc2/C1=C/c1cc(Br)c(O)c(Br)c1 , please.
100%

Same lookup for C[C@@H](Oc1cc(-n2cnc3ccc(CN4CCN(C)CC4)cc32)sc1C(N)=O)c1ccccc1C(F)(F)F , please.
97%

Same lookup for N#Cc1c(NC(=O)c2cccc3ccccc23)sc2c1CCCC2 , please.
100%

Same lookup for COc1cc(C(=O)NC2CCN(C)CC2)ccc1Nc1ncc2c(n1)N(C1CCCC1)C(C)CC(=O)N2C (stereo not given) , please.
100%
